# Test system: BT-549
# PROTOCOL_DETAILS: Antiproliferative activity against human BT-549 cells assessed as inhibition of cell growth by MTT assay
# Assay type: functional, cell-based
METRIC: pIC50
Convention used: pIC50 is expressed as -log10 of the molar concentration.

Form field - read-out: pIC50; system: BT-549; submitted item: CCOc1cc(/C=N/O)ccc1OCC#CC1c2c(cc3c(c2OC)OCO3)CCN1C (stereo unspecified)
4.90

* * *

# PROTOCOL_DETAILS: Cytotoxicity against human L02 cells assessed as inhibition of cell growth incubated for 72 hrs by MTT assay
# Assay type: toxicity, cell-based
For each record, check the reported IC50 at 72 h: if it is below 2 µM write Met, else write Not met.

Hello, is IC50 at 72 h of the following molecule strictly smaller than 2 µM? CC1CCN(c2cc(-c3ccnc(NC(=O)c4ccc(C(F)(F)F)cc4)c3)ccn2)CC1
Not met

Next molecule: CCOc1ccc(C(=O)Nc2cc(-c3ccnc(N4CCC(O)CC4)c3)ccn2)cc1
Met

Next molecule: COc1cc(C(=O)Nc2cc(-c3ccnc(N4CCC(O)CC4)c3)ccn2)cc(OC)c1OC
Not met

Next molecule: COc1ccc(C(=O)Nc2cc(-c3ccnc(N4CCC(O)CC4)c3)ccn2)cc1
Met

Next molecule: COc1ccc(CNc2cc(-c3ccnc(N4CCC(O)CC4)c3)ccn2)cc1
Not met

Next molecule: Cc1ccccc1C(=O)Nc1cc(-c2ccnc(N3CCC(O)CC3)c2)ccn1
Not met

Next molecule: COc1ccc(C(=O)Nc2cc(-c3ccnc(N4CCCC(CO)C4)c3)ccn2)cc1 (stereo not given)
Not met

Next molecule: Cc1cccc(C(=O)Nc2cc(-c3ccnc(N4CCC(C)CC4)c3)ccn2)c1
Not met

Next molecule: COc1ccc(C(=O)Nc2cc(-c3ccnc(N4CCC(C)CC4)c3)ccn2)cc1
Not met

Next molecule: CC1CCN(c2cc(-c3ccnc(NC(=O)c4ccc(F)cc4)c3)ccn2)CC1
Not met

Next molecule: CC1CCCN(c2cc(-c3ccnc(NC(=O)c4ccc(F)cc4)c3)ccn2)C1 (stereo not given)
Met

Next molecule: COc1ccc(C(=O)Nc2cc(-c3ccnc(N4CCN(C)CC4)c3)ccn2)cc1
Not met

Next molecule: O=C(Nc1cc(-c2ccnc(N3CCC(O)CC3)c2)ccn1)c1cc(Cl)cc(Cl)c1
Not met

Next molecule: N[C@H]1CC[C@H](Nc2cc(-c3cccc(NCc4cccc(F)c4)n3)c(Cl)cn2)CC1
Met

Next molecule: COc1ccc(CCC(=O)Nc2cc(-c3ccnc(N4CCC(O)CC4)c3)ccn2)cc1
Not met

Next molecule: COc1ccc(CC(=O)Nc2cc(-c3ccnc(N4CCC(O)CC4)c3)ccn2)cc1
Not met

Next molecule: Cc1ccc(C(=O)Nc2cc(-c3ccnc(N4CCC(C)CC4)c3)ccn2)cc1
Not met

Next molecule: COc1cccc(C(=O)Nc2cc(-c3ccnc(N4CCC(O)CC4)c3)ccn2)c1
Not met

Next molecule: O=C(Nc1cc(-c2ccnc(N3CCCC(CO)C3)c2)c(Cl)cn1)c1ccc(F)cc1 (stereo not given)
Not met
